# Organism: Rattus norvegicus
# experimental-protocol: Open TG-GATES - Regimen: Daily Repeat
# Format: toxicity, organism-based, Sprague-Dawley
# Parameters: regimen Daily Repeat, gender Male, age 6 weeks
# experimental-conditions: in vivo, po, 1000 mg/kg, […], tissue Blood, route gavage, dose level High, time 7 day
Threshold 20%. Neu below it: satisfied. Neu at it or above: not satisfied.

Exercise: Does the reported Neu of the following compound sit strictly below 20%? COc1ccc2[nH]c([S+]([O-])Cc3ncc(C)c(OC)c3C)nc2c1 (stereo not given) [OMEPRAZOLE]
Key: satisfied

Exercise: In plain terms, does COC1=CC(=O)C[C@@H](C)[C@]12Oc1c(Cl)c(OC)cc(OC)c1C2=O [GRISEOFULVIN] come in under 20% for Neu?
Key: satisfied

Exercise: Determine whether this compound shows Neu lower than 20% (ties excluded): CCOC(=O)CCC(=O)O[C@H]1[C@H](O[C@@H]2[C@@H](C)[C@H](O[C@H]3C[C@@](C)(OC)[C@@H](O)[C@H](C)O3)[C@@H](C)C(=O)O[C@H](CC)[C@@](C)(O)[C@H](O)[C@@H](C)C(=O)[C@H](C)C[C@@]2(C)O)O[C@H](C)C[C@@H]1N(C)C [ERYTHROMYCIN ETHYLSUCCINATE]
Key: satisfied

Exercise: Is 20% strictly greater than the compound's reported Neu? compound: CCOc1ccc(NC(=O)CC(C)O)cc1 (stereo not given) [BUCETIN]
Key: not satisfied

* * *

# Species: Rattus norvegicus
# experimental-protocol: Open TG-GATES - Regimen: Single
# Type: toxicity, organism-based, Sprague-Dawley
# Set-up: regimen Single, gender Male, age 6 weeks
# experimental-conditions: in vivo, po, 300 mg/kg, 24 h, tissue Blood, route gavage, dose level Middle
Below is a list of entries, each paired with its recorded MCH value.

These recorded examples may help you get a feel for the data.
{"columns": ["compound", "MCH"],
 "data": [
  ["CCOC(=O)CCC(=O)O[C@H]1[C@H](O[C@@H]2[C@@H](C)[C@H](O[C@H]3C[C@@](C)(OC)[C@@H](O)[C@H](C)O3)[C@@H](C)C(=O)O[C@H](CC)[C@@](C)(O)[C@H](O)[C@@H](C)C(=O)[C@H](C)C[C@@]2(C)O)O[C@H](C)C[C@@H]1N(C)C [ERYTHROMYCIN ETHYLSUCCINATE]", "21.1 pg"],
  ["COC1=CC(=O)C[C@@H](C)[C@]12Oc1c(Cl)c(OC)cc(OC)c1C2=O", "21.5 pg"],
  ["NC(N)=Nc1nc(CSCCC(N)=NS(N)(=O)=O)cs1", "22.4 pg"]
]}

Next, consider the following compound.
Exercise: In one line, give reported MCH of the entry COc1ccc2[nH]c([S+]([O-])Cc3ncc(C)c(OC)c3C)nc2c1 (centres undefined) .
Key: 20.6 pg

* * *

# Organism: Rattus norvegicus
# experimental-protocol: Open TG-GATES - Regimen: Daily Repeat
# Assay type: toxicity, organism-based, Sprague-Dawley
# Set-up: regimen Daily Repeat, gender Male, age 6 weeks
# experimental-conditions: in vivo, po, 10 mg/kg, 72 h, tissue Plasma, route gavage, dose level Low, time 3 day
measured-property: K
# answer = value followed by unit

Exercise: Identify measured K corresponding to "CN(C)CCCN1c2ccccc2CCc2ccccc21"
Key: 4.1 meq/L

Exercise: Kindly indicate its recorded K. Item: "CN(C)CCN(Cc1cccs1)c1ccccn1"
Key: 4.2 meq/L

Exercise: Quickly give me recorded K for CC(C)OC(=O)C(C)(C)Oc1ccc(C(=O)c2ccc(Cl)cc2)cc1 [FENOFIBRATE]
Key: 4.1 meq/L

Exercise: Look up K of "CC1=C(/C=C/C(C)=C/C=C/C(C)=C/CO)C(C)(C)CCC1" and report it.
Key: 4.3 meq/L

Data provenance is ChEMBL document CHEMBL3885861.
